Origin of values: ChEMBL document CHEMBL1143104

# Intrinsic activity per record follows
target_desc: Melanocortin receptor 4 (Homo sapiens, UniProt P32245)
Sequence (P32245 whole entry): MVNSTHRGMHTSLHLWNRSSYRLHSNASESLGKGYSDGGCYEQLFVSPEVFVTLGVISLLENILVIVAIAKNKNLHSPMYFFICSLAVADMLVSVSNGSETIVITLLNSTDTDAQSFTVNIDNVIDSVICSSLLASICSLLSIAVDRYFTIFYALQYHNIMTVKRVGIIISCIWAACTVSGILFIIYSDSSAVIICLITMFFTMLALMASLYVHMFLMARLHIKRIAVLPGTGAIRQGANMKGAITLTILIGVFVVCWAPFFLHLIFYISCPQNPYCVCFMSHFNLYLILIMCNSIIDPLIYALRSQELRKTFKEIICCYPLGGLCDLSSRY
assay_text: Intrinsic activity at human MC4 receptor expressed in CHO cells assessed as accumulation of cAMP production relative to alphaMSH
Format: functional, cell-based

compound	Intrinsic activity (%)
Cc1ccc(N2CCN(C(=O)[C@@H]3CN(C4CCOCC4)C[C@H]3c3ccc(Cl)cc3)CC2)c([C@H](C(C)C)N(C)C)c1	35
Cc1ccc(N2CCN(C(=O)[C@@H]3CN(C4CCOCC4)C[C@H]3c3ccc(Cl)cc3)CC2)c([C@@H](NC(=O)CCN(C)C)C(C)C)c1 (stereo in doubt; 13b-1)	122
Cc1ccc(N2CCN(C(=O)[C@@H]3CN(C4CCOCC4)C[C@H]3c3ccc(Cl)cc3)CC2)c([C@@H](NC(=O)[C@@H](C)N)C(C)C)c1	56
